Target: human MC3R (human, UniProt P41968 1-323)
Sequence (P41968 whole entry): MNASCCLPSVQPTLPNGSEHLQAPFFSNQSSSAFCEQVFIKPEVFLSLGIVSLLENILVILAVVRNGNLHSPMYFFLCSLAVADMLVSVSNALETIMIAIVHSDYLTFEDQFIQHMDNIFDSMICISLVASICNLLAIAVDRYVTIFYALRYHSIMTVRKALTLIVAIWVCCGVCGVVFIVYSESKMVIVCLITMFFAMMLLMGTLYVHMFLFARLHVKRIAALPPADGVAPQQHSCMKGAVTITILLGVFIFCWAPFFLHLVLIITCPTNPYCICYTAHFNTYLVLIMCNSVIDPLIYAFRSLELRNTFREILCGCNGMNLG
Test: cell-based or functional assay
Starred links: 1 amine or outer side, 2 acyl side, 3 side chain; linkers in the order of their positions; H or OH if unused. Positions of bridges follow the written chain, without caps; N, C: chain ends. Non-standard residues stand in square brackets, D forms with d. Primed or numbered codes have the meaning given here. dTyr(4-OMe)″ = O-methyl-D-tyrosine, COc1ccc(C[C@@H](N[*:1])C(=O)[*:2])cc1; dPhe(4-Br) = N[C@H](Cc1ccc(Br)cc1)C(=O)O; dPhe(4-I) = N[C@H](Cc1ccc(I)cc1)C(=O)O; Nle = CCCC[C@H](N)C(=O)O; R2 = not defined here
Everything with cAMP EC50 lower than 6 nM is rule not met; everything else, including exactly 6 nM, is rule met.

{"binder": "Ac-[Nle]CH[dPhe(4-I)]R[dW]C-NH2 (disulfide 2-7; SMILES CCCC[C@H](NC(C)=O)C(=O)N[C@H]1CSSC[C@@H](C(N)=O)NC(=O)[C@@H](Cc2c[nH]c3ccccc23)NC(=O)[C@H](CCCNC(=N)N)NC(=O)[C@@H](Cc2ccc(I)cc2)NC(=O)[C@H](Cc2c[nH]cn2)NC1=O) [CTX-1234]", "class_assignment": "rule not met"}

Prompt: Reported cAMP EC50 at or above 6 nM? Ac-R[Nle]CR[dTyr(4-OMe)″]R[dW]C-NH2 (disulfide 3-8; SMILES CCCC[C@H](NC(=O)[C@H](CCCNC(=N)N)NC(C)=O)C(=O)N[C@H]1CSSC[C@@H](C(N)=O)NC(=O)[C@@H](Cc2c[nH]c3ccccc23)NC(=O)[C@H](CCCNC(=N)N)NC(=O)[C@@H](Cc2ccc(OC)cc2)NC(=O)[C@H](CCCNC(=N)N)NC1=O) [CTX-1615]
Completion: rule met

Prompt: Reported cAMP EC50 at or above 6 nM? Ac-R[Nle]CH[dPhe(4-Br)]R[dW]C-NH2 (disulfide 3-8; SMILES CCCC[C@H](NC(=O)[C@H](CCCNC(=N)N)NC(C)=O)C(=O)N[C@H]1CSSC[C@@H](C(N)=O)NC(=O)[C@@H](Cc2c[nH]c3ccccc23)NC(=O)[C@H](CCCNC(=N)N)NC(=O)[C@@H](Cc2ccc(Br)cc2)NC(=O)[C@H](Cc2c[nH]cn2)NC1=O) [CTX-1231]
Completion: rule met

Prompt: Reported cAMP EC50 at or above 6 nM? R2-RC[dA]R[dPhe(4-Br)]R[dW]C-NH2 (disulfide 2-8; reading uncertain; also: printed as N-term. Mod. R2; Arg-cyclo(Cys-D-Ala-Arg-D-Phe(4-Br)-Arg-D-Trp-Cys)-NH2) [CTX-1226]
Completion: rule met
